Test system: Plasmodium falciparum
Method: ST_JUDE: Plasmodium falciparum K1 EC50 (uM) as measured by SYBR green dye
Format: functional, organism-based
Assay endpoint: EC50

// solved cases for EC50 follow
Compound	Target entity	EC50
CCCN1CCC(N2CCCC(C(=O)c3ccc4cc(OC)ccc4c3)C2)CC1 (stereo not drawn)	Plasmodium falciparum	> 15 µM
CCC1CCCCN1S(=O)(=O)c1ccc(C(=O)NNc2nc3c(C)cccc3s2)cc1 (stereo not drawn)	Plasmodium falciparum	> 15 µM

Lab note: next compound to report on.
(Q) Jot down EC50 (Plasmodium falciparum) of Cc1cc(N2CCC(N(C)C3CCCC3)CC2)nc2cc(O)ccc12 .
(A) > 15 µM

Where these numbers come from: ChEMBL document CHEMBL1154198
